Source: the supplement of paper PMC10567573

protein stability index overview
B1: LOXL2 (parent)
chain: HISSCKLGPQVSLDPMKNVTCENG

- Variants of: B1
- ASSAY TEXT: protein stability index of a GFP-peptide fusion (GPS, HEK-293T) (PSI 1-6); higher = more stable;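 also: lentivirally expressed fusions sorted by FACS into six bins by GFP to DsRed ratio, PSI derived from sequencing read proportions per bin multiplied by bin number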
- MEASUREMENT CONTEXT: c terminus: a fixed tail appended
READOUT LABEL: protein stability index

V11Y	3.67
L13I	4.1
L13F	3.52
C5W	3
S4C	3.78
D14I	3.44
L13K	4.15
T20P	4.26
S4H	3.98
K17I	3.3
P9K	4.25
M16I	3.68
S4D	3.61
H1L	3.29
I2P	3.76
D14C	2.95
G8Q	3.7
P15N	4.11
H1E	3.96
D14V	3.69
S4P	4.22
S4F	3.34
D14T	3.62
N23Q	4.08
S3G	4.2
G8D	4.34
K17T	4.19
E22D	3.82
S3D	4.39
S3T	3.59
